test_system: Glycogen phosphorylase, muscle form (Oryctolagus cuniculus) (UniProt P00489)
Sequence (P00489 whole entry): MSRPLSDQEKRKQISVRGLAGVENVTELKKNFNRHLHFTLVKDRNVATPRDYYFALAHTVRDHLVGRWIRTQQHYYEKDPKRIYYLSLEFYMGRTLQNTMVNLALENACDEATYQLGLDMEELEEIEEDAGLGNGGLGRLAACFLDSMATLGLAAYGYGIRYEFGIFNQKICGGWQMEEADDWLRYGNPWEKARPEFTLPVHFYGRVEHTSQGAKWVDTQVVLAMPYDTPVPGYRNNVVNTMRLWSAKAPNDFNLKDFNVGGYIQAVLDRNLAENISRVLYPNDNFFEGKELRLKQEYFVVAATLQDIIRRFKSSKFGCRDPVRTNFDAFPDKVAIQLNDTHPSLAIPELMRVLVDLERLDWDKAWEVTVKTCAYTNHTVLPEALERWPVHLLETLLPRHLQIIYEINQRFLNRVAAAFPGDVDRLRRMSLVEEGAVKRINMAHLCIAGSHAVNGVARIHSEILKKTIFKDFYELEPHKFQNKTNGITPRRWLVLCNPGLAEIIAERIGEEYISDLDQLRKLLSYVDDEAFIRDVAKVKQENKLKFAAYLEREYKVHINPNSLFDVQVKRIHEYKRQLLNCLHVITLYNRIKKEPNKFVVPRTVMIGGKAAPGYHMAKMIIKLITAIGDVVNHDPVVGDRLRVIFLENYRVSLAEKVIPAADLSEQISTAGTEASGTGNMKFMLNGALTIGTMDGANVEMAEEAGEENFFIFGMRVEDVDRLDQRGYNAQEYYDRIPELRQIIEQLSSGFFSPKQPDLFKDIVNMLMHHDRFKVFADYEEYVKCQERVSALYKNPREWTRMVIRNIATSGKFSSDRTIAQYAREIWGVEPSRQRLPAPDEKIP
protocol_details: Inhibition of rabbit glycogen phosphorylase assessed as release of phosphate from glucose 1 phosphate at 22 mM
measure_name: inhibition (%)
Your answer should be a plain number; it is taken to be in %.

Example entries and their recorded answers appear below.
* O=C(O)c1ccc2c(c1C(=O)NCc1ccccc1)C(=O)CCC2 | 89
* O=C(O)c1ccc2c3c1C(=O)N(Cc1ccccc1)C3=CCC2 | 46
* O=C(O)c1ccc2c3c1C(=O)N(Cc1ccccc1)C3(O)CCC2 (stereo not given) | 65
* O=C(O)c1ccc2c3c1C(=O)N(c1ccccc1)C3=CCC2 | 46

Tell me reported inhibition for CCCCCSC(=O)c1c(C(=O)O)ccc2c1C(=O)CCC2 , tested with Glycogen phosphorylase, muscle form (Oryctolagus cuniculus) (UniProt P00489).
55

----------
test_system: Glycogen phosphorylase, muscle form (Oryctolagus cuniculus) (UniProt P00489)
protocol_details: Inhibition of rabbit muscle glycogen phosphorylase assessed as release of phosphate from glucose 1 phosphate at 0.222 to 22 mM
The source made the active and inactive calls. No cut-off for these calls is given here.
measure_name: Activity

Below, each entry is followed by its recorded Activity result.
• COC(=O)c1ccc2c(c1C(=O)OC)C(=O)CCC2 = inactive
• CC1(C)c2ccc3c(c2C(=O)[C@@H]2O[C@@H]21)[C@H](O)OC3=O (racemic) = inactive
• CO[C@@H]1OC(=O)c2ccc3c(c21)C(=O)[C@@H]1O[C@@H]1C3(C)C (racemic) = inactive
• CC1(C)CCC(=O)c2c1ccc(C(=O)O)c2C(=O)O = inactive
• COC(=O)c1ccc2c(c1C(=O)OC)C(=O)C=CC2(C)C = inactive

Fill blank: measured Activity of the compound O=C(O)c1ccc2c(c1C(=O)O)C(=O)CCC2 is ____.
inactive

Would you kindly repeat that for O=C(O)c1ccc2c(c1C(=O)N1CCOCC1)C(=O)CCC2 ?
inactive

Same read-out for CC1(C)CCC(=O)c2c1ccc1c2C(O)OC1=O (stereo unspecified) ?
inactive

Repeat with COC(=O)c1c(C(=O)O)ccc2c1C(=O)CCC2
inactive

What do you get for CC1(C)C=CC(=O)c2c1ccc1c2C(O)OC1=O (stereo unspecified) ?
inactive

Try this compound too: COC(=O)c1ccc2c(c1C(=O)OC)C(=O)C(Br)CC2(C)C (stereo unspecified)
inactive
